PROTOCOL: qHTS assay to identify small molecule antagonists of the constitutive androstane receptor (CAR) signaling pathway - cell viability counter screen (AID 1224837); further: nearly all actives have a fitted effect of over 45% in size
DETAILS: HepG2-CYP2B6-hCAR viability, CellTiter-Fluor, 23 h, co-treated with 50 nM CITCO; series mostly up to 92.4 µM
Results filed as inconclusive are left out. Calls of active or inactive are those of the source. The call rests on the fitted dose curve; in most records, active means well fitted cell-killing curve with a large enough effect in the repeat runs; inconclusive means weak or mixed curves, or effect the other way; inactive means flat fitted curve, though single readings scatter.
Can you answer with just one of these options? 1 (active), -1 (inactive)

Use these answered entries as a reference point.
# MOLECULE, LABEL
records = [
    ("CC(C1CC1)C(O)(Cn1cncn1)c1ccc(Cl)cc1 (stereo not drawn)", -1),
    ("CCCCOP(=O)(O)OCCCC", -1),
    ("ClCC(Cl)Cl", -1),
    ("O=C(CCN1CC1)OCC(CO)(COC(=O)CCN1CC1)COC(=O)CCN1CC1", -1),
    ("CC1=C(C(=O)Nc2ccccc2)S(=O)(=O)CCO1", -1),
]

Exam item: So what was the verdict on `Nc1ccccc1Cl` in this test?
Marked response: -1

Exam item: One more molecule: `CSc1ccc(C(=O)C(C)(C)N2CCOCC2)cc1`
Marked response: -1

Exam item: One more molecule: `CCCCN(CCCCO)N=O`
Marked response: -1

Exam item: One more molecule: CC(C)(C)C(=O)C(Oc1ccc(Cl)cc1)n1cncn1 (stereo not drawn)
Marked response: -1

Exam item: One more molecule: `CNCC(=O)c1ccc(O)c(O)c1`
Marked response: -1

Exam item: One more molecule: `Cc1cccc(C#N)c1`
Marked response: -1

Exam item: One more molecule: `ClCC(Cl)(Cl)Cl`
Marked response: -1

Exam item: One more molecule: `COc1cccc2c1cc([N+](=O)[O-])c1c(C(=O)O)cc3c(c12)OCO3`
Marked response: 1

Exam item: One more molecule: CC(=O)CC(c1ccc(Cl)cc1)c1c(O)c2ccccc2oc1=O (stereo not drawn)
Marked response: -1

Exam item: One more molecule: `CCOP(=O)(N=C1SCCS1)OCC`
Marked response: -1

Exam item: One more molecule: C=CC1CC=CCC1 (stereo not drawn)
Marked response: -1

Exam item: One more molecule: `N#Cc1c(Cl)cccc1Cl`
Marked response: -1

Exam item: One more molecule: `CN1C[C@@H](NS(=O)(=O)N(C)C)C[C@@H]2c3cccc4c3c(cn4C)C[C@H]21`
Marked response: -1
